B1: ELF3 (parent)
chain: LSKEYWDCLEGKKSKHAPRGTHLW

# Variants of: B1
# Test Method Notes: protein stability index of a GFP-peptide fusion (GPS, HEK-293T) (PSI 1-6); higher = more stable;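 further: lentivirally expressed fusions sorted by FACS into six bins by GFP to DsRed ratio, PSI derived from sequencing read proportions per bin multiplied by bin number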
# Particulars: c terminus: a fixed tail appended
Property Name: protein stability index
Just the number, please.

Example variants with recorded protein stability index:
Mutant Code	Property Name	Observed Measurement
H16T	protein stability index	3.43
L9Q	protein stability index	3.71

Q: protein stability index for H16P ?
Ans: 2.65
